System: A549
protocol_text: Antiproliferative activity against human A549 cells incubated for 72 hrs by celltiter-glo luminescent assay
Assay type: functional, cell-based
measurement_parameters: A549, 72 h
reported_endpoint: pIC50
Note on pIC50: it is the negative log10 of concentration, concentration in mol/L.

Q: Look at this compound and give its reported pIC50. "COC[C@@H](C)N[C@H]1CC[C@H](Nc2cc(-c3cccc(NCC4(C#N)CCOCC4)n3)c(Cl)cn2)CC1"
A: 5.24

###

system_name: UniProt:P56524
Sequence (P56524 whole entry): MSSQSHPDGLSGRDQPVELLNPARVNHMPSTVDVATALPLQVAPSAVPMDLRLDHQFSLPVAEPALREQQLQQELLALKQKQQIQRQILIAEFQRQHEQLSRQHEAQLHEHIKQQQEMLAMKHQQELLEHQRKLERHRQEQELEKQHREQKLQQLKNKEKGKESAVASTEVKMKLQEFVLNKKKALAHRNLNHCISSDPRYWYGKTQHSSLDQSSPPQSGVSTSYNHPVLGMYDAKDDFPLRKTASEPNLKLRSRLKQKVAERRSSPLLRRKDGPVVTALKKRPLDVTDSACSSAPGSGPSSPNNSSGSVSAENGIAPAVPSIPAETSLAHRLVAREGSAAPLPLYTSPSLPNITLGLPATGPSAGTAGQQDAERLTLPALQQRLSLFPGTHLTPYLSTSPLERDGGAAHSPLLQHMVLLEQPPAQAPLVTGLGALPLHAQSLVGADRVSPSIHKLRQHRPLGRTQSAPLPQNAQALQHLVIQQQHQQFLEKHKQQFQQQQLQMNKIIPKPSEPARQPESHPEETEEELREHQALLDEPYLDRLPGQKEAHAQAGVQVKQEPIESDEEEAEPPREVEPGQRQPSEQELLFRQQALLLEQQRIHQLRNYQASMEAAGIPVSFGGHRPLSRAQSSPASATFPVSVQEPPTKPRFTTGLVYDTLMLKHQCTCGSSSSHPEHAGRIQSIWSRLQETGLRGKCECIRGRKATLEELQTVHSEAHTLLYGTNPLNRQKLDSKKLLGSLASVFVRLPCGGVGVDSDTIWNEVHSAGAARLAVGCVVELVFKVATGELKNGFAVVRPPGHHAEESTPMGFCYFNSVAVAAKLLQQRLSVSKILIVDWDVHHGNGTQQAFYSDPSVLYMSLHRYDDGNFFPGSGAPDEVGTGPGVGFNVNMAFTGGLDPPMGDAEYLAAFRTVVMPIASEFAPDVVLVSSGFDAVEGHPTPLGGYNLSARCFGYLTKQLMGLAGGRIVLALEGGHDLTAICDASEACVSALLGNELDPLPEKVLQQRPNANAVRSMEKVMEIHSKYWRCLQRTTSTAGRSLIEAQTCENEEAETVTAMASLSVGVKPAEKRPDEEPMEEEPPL
protocol_text: Inhibition of human recombinant HDAC4 using Ac-Leu-Gly-Lys(Tfa)-AMC as substrate incubated for 24 hrs by fluorescence based Envision plate reader analysis
pIC50: −log10 of the molar value.
reported_endpoint: pIC50

Below: 5 compounds and their reported pIC50.
N#CC1(CNc2cccc(-c3cc(Nc4cnn(Cc5ccc(C(=O)NO)cc5)c4)ncc3Cl)n2)CCOCC1 5.97
N#CC1(CNc2cccc(-c3cc(Nc4cnn(CCCCCCC(=O)NO)c4)ncc3Cl)n2)CCOCC1 5.36
N#CC1(CNc2cccc(-c3cc(Nc4cnn(CCCCCC(=O)NO)c4)ncc3Cl)n2)CCOCC1 5.60
O=C(CCCCCn1cc(Nc2ncc(Cl)c(-c3cnc4ccccn34)n2)cn1)NO < 5.00
CCCNNC(=O)CCCCCn1cc(Nc2ncc(Cl)c(-c3cnc4ccccn34)n2)cn1 < 4.70

Q: Look up pIC50: "CCCNNC(=O)c1ccc(Cn2cc(Nc3ncc(Cl)c(-c4cnc5ccc(-c6ccccc6)cn45)n3)cn2)cc1"
A: < 4.70

Q: Fill in the blank: the reported pIC50 of "N#CC1(CNc2cccc(-c3cc(Nc4cnn(Cc5ccc(C(=O)Nc6ccccc6N)cc5)c4)ncc3Cl)n2)CCOCC1" is ____.
A: < 4.70

Q: Value lookup for pIC50; key = "CCCNNC(=O)c1ccc(Cn2cc(Nc3ncc(Cl)c(-c4cnc5ccccn45)n3)cn2)cc1"
A: < 4.70
